subject_of_test: Histone acetyltransferase p300 (Homo sapiens, UniProt Q09472)
Sequence (Q09472 whole entry, the tested form may be a part): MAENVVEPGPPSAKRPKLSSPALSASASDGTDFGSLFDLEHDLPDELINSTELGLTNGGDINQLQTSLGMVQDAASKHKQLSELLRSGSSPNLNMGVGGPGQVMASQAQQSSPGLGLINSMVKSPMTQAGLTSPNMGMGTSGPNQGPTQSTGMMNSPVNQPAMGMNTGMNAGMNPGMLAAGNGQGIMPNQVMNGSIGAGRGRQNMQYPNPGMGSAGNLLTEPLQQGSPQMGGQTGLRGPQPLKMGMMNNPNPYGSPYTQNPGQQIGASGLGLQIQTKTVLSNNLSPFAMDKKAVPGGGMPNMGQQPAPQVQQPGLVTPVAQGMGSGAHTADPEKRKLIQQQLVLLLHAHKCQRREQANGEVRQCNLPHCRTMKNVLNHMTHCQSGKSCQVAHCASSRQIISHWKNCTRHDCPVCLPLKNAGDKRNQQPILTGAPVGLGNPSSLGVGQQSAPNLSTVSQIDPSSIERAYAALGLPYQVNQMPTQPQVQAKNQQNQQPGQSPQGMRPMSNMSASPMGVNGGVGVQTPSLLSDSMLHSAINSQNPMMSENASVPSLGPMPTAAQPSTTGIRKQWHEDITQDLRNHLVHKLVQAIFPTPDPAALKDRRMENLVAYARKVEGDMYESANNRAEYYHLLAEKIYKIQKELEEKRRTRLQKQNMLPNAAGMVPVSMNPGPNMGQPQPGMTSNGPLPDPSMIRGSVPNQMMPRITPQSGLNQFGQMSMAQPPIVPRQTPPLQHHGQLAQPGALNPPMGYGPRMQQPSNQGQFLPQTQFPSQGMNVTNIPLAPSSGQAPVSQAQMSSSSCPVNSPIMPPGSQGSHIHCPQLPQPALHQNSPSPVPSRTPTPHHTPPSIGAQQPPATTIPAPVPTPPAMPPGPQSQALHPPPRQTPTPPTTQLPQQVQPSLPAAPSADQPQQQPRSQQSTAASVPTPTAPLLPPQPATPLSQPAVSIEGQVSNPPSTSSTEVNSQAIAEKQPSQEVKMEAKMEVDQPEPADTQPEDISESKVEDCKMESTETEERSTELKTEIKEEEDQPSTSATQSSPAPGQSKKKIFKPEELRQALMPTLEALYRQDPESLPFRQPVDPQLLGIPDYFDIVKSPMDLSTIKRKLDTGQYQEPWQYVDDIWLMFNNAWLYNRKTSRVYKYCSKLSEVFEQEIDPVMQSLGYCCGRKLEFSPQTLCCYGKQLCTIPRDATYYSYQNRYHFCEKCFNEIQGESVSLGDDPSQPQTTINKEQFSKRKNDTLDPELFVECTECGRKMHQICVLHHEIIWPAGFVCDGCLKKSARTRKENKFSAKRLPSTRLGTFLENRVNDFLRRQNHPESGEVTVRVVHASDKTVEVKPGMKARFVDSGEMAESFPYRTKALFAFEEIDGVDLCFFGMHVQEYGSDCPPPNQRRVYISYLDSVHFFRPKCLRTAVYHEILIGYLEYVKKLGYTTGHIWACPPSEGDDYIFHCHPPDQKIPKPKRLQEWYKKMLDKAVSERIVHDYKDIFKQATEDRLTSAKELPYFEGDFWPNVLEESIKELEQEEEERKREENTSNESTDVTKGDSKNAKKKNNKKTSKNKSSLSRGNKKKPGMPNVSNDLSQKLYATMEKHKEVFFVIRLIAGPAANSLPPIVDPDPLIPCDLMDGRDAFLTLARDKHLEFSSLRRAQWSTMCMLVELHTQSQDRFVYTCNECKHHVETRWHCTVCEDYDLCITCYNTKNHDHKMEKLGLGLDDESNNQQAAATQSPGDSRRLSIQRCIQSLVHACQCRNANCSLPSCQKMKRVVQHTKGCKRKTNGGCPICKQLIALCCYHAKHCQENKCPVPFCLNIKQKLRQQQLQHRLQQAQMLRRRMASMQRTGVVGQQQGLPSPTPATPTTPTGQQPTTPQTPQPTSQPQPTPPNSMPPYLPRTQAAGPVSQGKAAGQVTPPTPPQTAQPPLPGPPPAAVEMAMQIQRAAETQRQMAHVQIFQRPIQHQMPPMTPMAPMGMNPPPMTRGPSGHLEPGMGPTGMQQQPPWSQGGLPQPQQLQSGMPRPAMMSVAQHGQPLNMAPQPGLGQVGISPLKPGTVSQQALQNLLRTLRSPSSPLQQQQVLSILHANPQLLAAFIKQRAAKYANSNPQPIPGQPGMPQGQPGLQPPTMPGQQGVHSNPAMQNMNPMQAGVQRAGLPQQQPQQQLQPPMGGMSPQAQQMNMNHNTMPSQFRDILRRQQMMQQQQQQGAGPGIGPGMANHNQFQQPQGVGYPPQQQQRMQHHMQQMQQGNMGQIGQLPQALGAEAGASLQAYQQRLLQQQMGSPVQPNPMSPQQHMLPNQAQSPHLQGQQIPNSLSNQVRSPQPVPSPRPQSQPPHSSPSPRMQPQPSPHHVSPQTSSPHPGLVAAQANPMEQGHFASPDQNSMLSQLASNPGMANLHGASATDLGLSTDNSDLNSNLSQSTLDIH
method_summary: Inhibition of human p300 HAT domain (1195 to 1673 residues) using histone H3 peptide and acetyl-coA as substrates preincubated for 10 mins followed by substrate addition and measured after 30 mins by beckman scintillation counting analysis
measure: pIC50
For clarity, pIC50 is expressed as the negative log10 of concentration in mol/L.

// query Tell me the measured pIC50 of Brc1ccc(-c2ncc(OCC3CCNCC3)nc2-c2ccc(Br)cc2)cc1 , please.
// result 5.24

// query Tell me the measured pIC50 of c1cc(-c2ccc(-c3ncc(OCC4CCNCC4)nc3-c3ccc(-c4ccoc4)cc3)cc2)co1 , please.
// result 5.85

// query Tell me the measured pIC50 of Ic1ccc(-c2ncc(OCC3CCNCC3)nc2-c2ccc(I)cc2)cc1 , please.
// result 5.11

// query Tell me the measured pIC50 of Nc1ccc(-c2ccc(-c3ncc(OCC4CCNCC4)nc3-c3ccc(-c4ccc(N)cc4)cc3)cc2)cc1 , please.
// result 5.64

// query Tell me the measured pIC50 of CC(C)(C)c1ccc(-c2ncc(OCC3CCNCC3)nc2-c2ccc(C(C)(C)C)cc2)cc1 , please.
// result 4.75

// query Tell me the measured pIC50 of c1ccc(-c2cc(OCC3CCNCC3)cnc2-c2ccccc2)cc1 , please.
// result 4.33

// query Tell me the measured pIC50 of CCc1ccc(-c2ncc(OCC3CCNCC3)nc2-c2ccc(CC)cc2)cc1 , please.
// result 5.00

// query Tell me the measured pIC50 of OCc1ccc(-c2ncc(OCC3CCNCC3)nc2-c2ccc(CO)cc2)cc1 , please.
// result 5.00
